Property: melting point; scope: individual compounds

> print(dat)
               compound  experimental.value
1  Cc1ccc(C=CC(=O)O)cc1       198 to 201 °C
2   Cc1cc(Cl)ccc1C(=O)O       172 to 173 °C

Returns the measured melting point for the input compound. Input: Cc1ccc(-c2ccc(C=C3N=C(c4ccccc4)OC3=O)o2)cc1 149 to 150 °C

Returns the measured melting point for the input compound. Input: CCNC(=O)CC#N 73 to 74 °C

Returns the measured melting point for the input compound. Input: O=[N+]([O-])c1ccc2c(c1)OCO2 145 to 149 °C

Returns the measured melting point for the input compound. Input: COc1ccccc1-c1nnc2n1CN(c1ccccc1C)CS2 239 to 240 °C

Returns the measured melting point for the input compound. Input: CCOC(=O)C(=O)C(C#N)C(=O)OCC (stereo not drawn) 88 to 90 °C

Returns the measured melting point for the input compound. Input: O=C(O)c1cnn2ccccc12 199 to 201 °C

Returns the measured melting point for the input compound. Input: COc1cscc1C(=O)O 105 to 108 °C

Returns the measured melting point for the input compound. Input: COc1cc2c(c3oc(=O)c4c(c13)CCOC4=O)C1C=COC1O2 (stereo not drawn) 245 °C

Returns the measured melting point for the input compound. Input: CCCCCCCCCCOc1ccc(C(C)=O)cc1OCCCCCCCCCC 61 to 65 °C

Returns the measured melting point for the input compound. Input: c1ccc(C23CC4CC(CC(C4)C2)C3)cc1 84 to 85 °C

Returns the measured melting point for the input compound. Input: CC1(C)CC(=O)c2c(C(=O)c3cccs3)noc2C1 131 °C

Returns the measured melting point for the input compound. Input: O=C1OC2(Cc3ccccc31)Cc1ccccc12 (stereo not drawn) 88 °C

Returns the measured melting point for the input compound. Input: Cn1ccc(-c2ccc(Br)cc2)n1 79.5 to 81 °C

Returns the measured melting point for the input compound. Input: CCOC(=O)c1cncc(Br)c1 41 °C

Returns the measured melting point for the input compound. Input: COC(=O)CCC(C)C1CCC2C3C=CC4CCCCC4(C)C3CCC12C (stereo not drawn) 60 °C

Returns the measured melting point for the input compound. Input: Fc1c(F)c(F)c(P(c2c(F)c(F)c(F)c(F)c2F)c2c(F)c(F)c(F)c(F)c2F)c(F)c1F 117 °C

---

test_readout: melting point (°C)

Solved entries:
> print(dat)
                                   compound  experimental.value
1  C#CC1(O)CCC2(C)C(CCC3C2CCC2(C)C3CCC2(C)O)C1 (configuration not stated)                 190
2  CC(C=Cc1ccccc1)c1ccccc1 (configuration not stated)                47.5
3              CC(C)(C(=O)c1cccnc1)c1cccnc1                50.5
4  O=C(CCCN1CCC(n2c(=S)[nH]c3ccccc32)CC1)c1ccc(F)cc1                 202
5                  CC(C)(C)c1ccc(C(N)=O)cc1                 173

[1] CN(C(=O)C(C(F)(F)F)C(F)(F)F)C1CCCCC1
[2] NC1CC1
[3] CC1CC(C)CC(C)C1 (configuration not stated)
[4] Cc1cc(C)n(CO)n1
[5] N#Cc1c(F)cccc1Cl
Put the items in sequence by melting point, from largest down. Give the labels in the order specified. 1, 4, 5, 2, 3
(1: 169 °C, 4: 109 °C, 5: 58 °C, 2: -10 °C, 3: -49.7 °C)
